Parameter: IC50. Scope: all listed entries.
molecular target: Interleukin-1 receptor-associated kinase 4 (Homo sapiens, UniProt Q9NWZ3)
Sequence (Q9NWZ3 whole entry): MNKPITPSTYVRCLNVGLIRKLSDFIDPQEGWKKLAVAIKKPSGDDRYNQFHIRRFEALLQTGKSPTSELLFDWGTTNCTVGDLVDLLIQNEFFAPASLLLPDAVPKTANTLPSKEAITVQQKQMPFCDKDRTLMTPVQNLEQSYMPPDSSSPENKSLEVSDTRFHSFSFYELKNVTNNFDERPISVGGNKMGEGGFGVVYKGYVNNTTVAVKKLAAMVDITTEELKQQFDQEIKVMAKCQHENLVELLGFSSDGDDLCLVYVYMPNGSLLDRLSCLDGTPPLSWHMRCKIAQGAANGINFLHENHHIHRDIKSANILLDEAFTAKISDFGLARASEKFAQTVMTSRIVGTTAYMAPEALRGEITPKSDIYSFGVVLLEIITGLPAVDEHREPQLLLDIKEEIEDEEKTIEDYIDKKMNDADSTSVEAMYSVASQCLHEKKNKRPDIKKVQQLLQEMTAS
experimental endpoint: IC50 (nM)

1. NCCCNc1cccc(-c2cnc3ccccn23)n1: 1300
2. CN1[C@@H]2CC[C@H]1CC(Nc1cccc(-c3cnc4ccccn34)n1)C2 (stereo partly specified): 914
3. COc1ccc2ncc(-c3cccc(NC4CCNCC4)n3)n2c1: 6
4. c1cc(NC2CCNCC2)nc(-c2cnc3ccc(-c4ccc[nH]4)cn23)c1: 63
5. c1cc(NCC2CCNCC2)nc(-c2cnc3ccccn23)c1: 3030
6. N#Cc1ccc2ncc(-c3cccc(NC4CCNCC4)n3)n2c1: 4
